Test: in vivo
Details: male, Sprague-Dawley, rat, plasma, iv, 3 mg/kg
Protocol: Male Sprague-Dawley rats of 8-10 weeks were used in this study. […] Animals were placed in a containment chamber prior to i.v. injection to facilitate blood sampling. […] Samples were analyzed on a Sciex Qtrap 6500+ equipped with a microflow liquid chromatography (Eksigient M3 microflow) and a UPLC HSS-T3 column (1 mm×100 mm, 1.8 μm, equipped with a 0.2 μm fritted pre-filter). […]
metricName: clearance

Documented clearance of CSCC[C@H](NC(=O)[C@@H]1CCCN1C(=O)CNC(=O)[C@H](CCCCN)NC(=O)[C@H](Cc1cnc[nH]1)NC(=O)[C@H](CO)NC(=O)[C@H](CC(C)C)NC(=O)[C@H](CCCNC(=N)N)NC(=O)[C@@H]1CCCN1C(=O)[C@H](CCCNC(=N)N)NC(=O)[C@@H]1CCC(=O)N1)C(=O)N1CCC[C@H]1C(=O)N[C@@H](Cc1ccccc1)C(=O)O [Compound 60, Pyr-R-P-R-L-S-H-K-G-P-M-P-F, reference compound] : > 100 mL/min/kg
